assay: gradient 5% acetonitrile 3 min, to 50% in 2 min, to 85% in 15 min, held 3 min, 100 µL/min; conditions: column: Zorbax Extend-C18 2.1 x 50 mm; eluents: water / acetonitrile, 0.1% formic acid
Param threshold (700 s) applies to RP-LC retention time; output yes (1) when value >= threshold, no (0) when value < threshold.

Reference set, count: 8
CC(=O)Nc1c(C)noc1/C=C\c1ccc(S(=O)(=O)N2CCN(c3ccccn3)CC2)cc1 | no (0)
Cc1ccc(NC(=O)CSc2nccc(N3CCN(c4cc(C)ccc4C)CC3)n2)c(Cl)c1 | yes (1)
COc1ccc2c(c1)CCc1c-2n[nH]c1C(=O)N1CCN(c2cc(=O)n(C)c(=O)n2C)CC1 | no (0)
O=S(=O)(NCC(O)(c1ccccc1)C(F)(F)F)c1cc(F)ccc1F (stereo not given) | yes (1)
CCc1noc(NC(C)=O)c1-c1ccc(C)c(S(=O)(=O)N(CC)CC)c1 | yes (1)
COCCNC(=O)C1CCCN(c2nccc(C)n2)C1 (stereo not given) | no (0)
O=C(Cc1c[nH]c2ccccc12)N1CCN(c2cc(-c3cccs3)[nH]n2)CC1 | yes (1)
CCn1nc(C)c(CCNC(=O)Nc2ccccc2C(F)(F)F)c1C | no (0)

[ask] Decide: RP-LC retention time of Cc1ccc(C)c(NC(=O)c2cnc(-c3ccc(F)cc3)nc2-c2ccncc2)c1 >= 700 s?
[reply] yes (1)

[ask] Decide: RP-LC retention time of CC(C)n1cnc(S(=O)(=O)N2CCCC(C(=O)Nc3ccccc3F)C2)c1 (stereo not given) >= 700 s?
[reply] yes (1)

[ask] Decide: RP-LC retention time of N#Cc1ccc(C(=O)N2CCN(c3cc(-c4cccs4)[nH]n3)CC2)cc1 >= 700 s?
[reply] yes (1)

[ask] Decide: RP-LC retention time of CCOc1nccnc1N1CCC(N(C)C(=O)Cc2cccnc2)C1 (stereo not given) >= 700 s?
[reply] no (0)

[ask] Decide: RP-LC retention time of COCCCNC(=O)C1(CCO)CCN(Cc2ccccc2)C1 (stereo not given) >= 700 s?
[reply] no (0)

[ask] Decide: RP-LC retention time of Cc1cc(C(=O)NCCCN2CCCC2=O)c2c(C)nn(-c3ccccc3)c2n1 >= 700 s?
[reply] yes (1)

[ask] Decide: RP-LC retention time of CC1CCN(c2cc(-c3noc(C(=O)NCCC4=CCCCC4)n3)ccn2)CC1 >= 700 s?
[reply] yes (1)

[ask] Decide: RP-LC retention time of C=C(C)CN1CC[C@]23c4c5ccc(O)c4O[C@H]2c2[nH]c4ccccc4c2C[C@@]3(O)[C@H]1C5 >= 700 s?
[reply] no (0)

[ask] Decide: RP-LC retention time of O=S(=O)(NCc1ccc2[nH]c3c(c2c1)CCCC3)c1ccccc1 >= 700 s?
[reply] no (0)

[ask] Decide: RP-LC retention time of COc1ccc(C(=O)N2c3nc(-c4ccccc4)nn3C3(CCCCC3)[C@@H]3CCCC[C@@H]32)cc1OC >= 700 s?
[reply] yes (1)

###

assay: gradient 5% acetonitrile 3 min, to 50% in 2 min, to 85% in 15 min, held 3 min, 100 µL/min; conditions: column: Zorbax Extend-C18 2.1 x 50 mm; eluents: water / acetonitrile, 0.1% formic acid
measure_name: RP-LC retention time
The answer consists of two parts: a number and, after it, its unit.

Take a look at these entries with their results.
CN(CCc1ccccn1)C(=O)C1CCN(c2cn[nH]c(=O)c2)CC1 | 536 s
CCc1nc2cc(-c3noc(Cc4ccc(F)cc4)n3)ccc2o1 | 1070 s

Could I get RP-LC retention time for every one of these entries?
1. O=C(CSC1CCc2ccccc2NC1=O)NCc1ccc(Cl)cc1Cl (stereo not given)
2. Cc1cccc(CC(=O)N2C[C@@H]3C[C@H]2C[C@@H]3NS(=O)(=O)c2cccs2)c1
3. Cc1cc(Cl)ccc1NS(=O)(=O)c1cc(-c2[nH]ncc2C(=O)N2CCCC2)oc1C

[reply]
["868 s", "815 s", "772 s"]

###

Assign RP-LC retention time to each entry below.
assay: gradient 5% acetonitrile 3 min, to 50% in 2 min, to 85% in 15 min, held 3 min, 100 µL/min; conditions: column: Zorbax Extend-C18 2.1 x 50 mm; eluents: water / acetonitrile, 0.1% formic acid
Answers are plain numbers, in s.

CCOC(=O)CSc1nc2c(sc3ccccc32)c(=O)n1Cc1ccco1 | 1040
CCOc1ccc(Cc2nc(-c3ccc4oc(C)nc4c3)no2)cc1OCC | 1040
Cc1ccccc1CNC(=O)Cn1c(C)nc2onc(C)c2c1=O | 752
Cc1cc(C)cc(NC(=O)N2CCC(n3cnc4c(Cl)cccc4c3=O)CC2)c1 | 892
CCc1ccc(CNC(=O)c2ccc3ncnc(N4CCCC4)c3c2)cc1 | 697
O=C(NCc1ccc(F)cc1F)c1cnn2c(-c3ccc4c(c3)OCO4)ccnc12 | 1000
Cc1ccc(-c2ncc(C(=O)NC(C)c3ccccn3)c(-c3ccncc3)n2)cc1 (centres undefined) | 685
Cc1nn(C)c(C)c1S(=O)(=O)N1CCC2(CC1)C(=O)N(C(C)C)C2c1ccccc1 (centres undefined) | 837

Attention now shifts to the item below.
[ask] Answer with the recorded RP-LC retention time for the molecule listed here: O=C(NCCN1CCCCCC1)C1CCN(c2cnc(N3CCCC3)nc2)CC1
[reply] 569

###

experiment: gradient 5% acetonitrile 3 min, to 50% in 2 min, to 85% in 15 min, held 3 min, 100 µL/min; settings: column: Zorbax Extend-C18 2.1 x 50 mm; eluents: water / acetonitrile, 0.1% formic acid
measure_name: RP-LC retention time
The answer consists of two parts: a number and, after it, its unit.

CC(=O)N[C@@H]1CN(C(=O)COc2ccc(Cl)cc2)C[C@H]1CO | 633 s

Could I get RP-LC retention time for every one of these entries?
1. COCCn1c(CCCC(=O)NCc2ccc3c(c2)OCO3)nc2cccnc21
2. Cc1cc(F)ccc1NC(=O)C1CCCN(S(=O)(=O)c2c[nH]c(C(=O)N3CCCCCC3)c2)C1 (centres undefined)
3. COC(=O)c1ccc(Oc2cc(C)nc(-n3nc(C)cc3C)n2)cc1

[reply]
1. 632 s
2. 857 s
3. 912 s

Could I get RP-LC retention time for every one of these entries?
1. O=C(NCc1ccc(F)cc1)C1CCN(S(=O)(=O)c2cc(-c3noc(C4CC4)n3)cs2)CC1
2. O=C(c1cc(Cl)ccc1Cl)N1CCN(c2cc(-c3ccc(F)cc3)[nH]n2)CC1

[reply]
958 s
897 s

Could I get RP-LC retention time for every one of these entries?
1. COc1cccc(CCC(=O)N2C[C@@H]3C[C@H](NC(=O)c4ccccc4)[C@H]2C3)c1
2. O=C(c1cccc(Cl)c1)N1CCC(n2c(-c3ccco3)nc3cccnc32)C1 (centres undefined)
3. COc1cccc(N2C(=O)C3N=NN(c4ccc(C)c(F)c4)C3C2=O)c1 (centres undefined)

[reply]
793 s
776 s
1110 s

###

assay: gradient 5% acetonitrile 3 min, to 50% in 2 min, to 85% in 15 min, held 3 min, 100 µL/min; conditions: column: Zorbax Extend-C18 2.1 x 50 mm; eluents: water / acetonitrile, 0.1% formic acid
Param threshold (700 s) applies to RP-LC retention time; output T when value >= threshold, F when value < threshold.

Cc1nnc(-c2ccc3ccn(CC(=O)Nc4ccc(F)c(Cl)c4)c3c2)o1 | T
CCS(=O)(=O)N1CCCC(Cn2cc(COc3ccc4c(c3)CCC4)nn2)C1 (stereo not given) | T
Cc1ccsc1C(=O)N1CCC2(CC1)NC(=O)N(Cc1ccccc1)C2=O | T
CCc1nnc(-c2coc(S(=O)(=O)N3CCN(C4CCCCC4)CC3)c2)o1 | F
CCCn1cc(CCNC(=O)Nc2ccc(C)cc2Cl)c2cccnc21 | T
CCn1cnc(S(=O)(=O)N2CCC(C(=O)N3CCc4ccccc4C3)CC2)c1 | T
CN(C)CCCNc1ncnc2c1cnn2-c1cccc(Cl)c1 | F
N#Cc1cccc(NC(=O)C2CCN(S(=O)(=O)c3cc(C(=O)N4CCOCC4)cs3)CC2)c1 | T

[ask] Decide: RP-LC retention time of CNc1nc(Nc2ccc(F)cc2C)nc2ccccc12 >= 700 s?
[reply] F

[ask] Decide: RP-LC retention time of COc1ccc(Cl)cc1N1CC(c2nc(-c3ccccc3)no2)CC1=O (stereo not given) >= 700 s?
[reply] T

###

test: gradient 5% acetonitrile 3 min, to 50% in 2 min, to 85% in 15 min, held 3 min, 100 µL/min; settings: column: Zorbax Extend-C18 2.1 x 50 mm; eluents: water / acetonitrile, 0.1% formic acid
Assign RP-LC retention time to each entry below.
The answer consists of two parts: a number and, after it, its unit.

Take a look at these entries with their results.
Cc1noc(C)c1S(=O)(=O)N1CCC(Cc2nncn2-c2ccccc2)CC1 | 780 s
CCn1cc(-c2ccncc2)cc1C(=O)NCc1ccc(Cl)cc1 | 679 s
Cc1nnc(-c2coc(S(=O)(=O)N3CCN(CC(C)C)CC3)c2)o1 | 587 s
O=C(c1ccsc1)N1CC(Oc2ccc(-c3nc(-c4ccccc4)no3)cc2)C1 | 1120 s
CCOc1ccc(S(=O)(=O)N2CCC(C(=O)NCC3CCCO3)CC2)cc1 (stereo not given) | 750 s
Cc1c2ccncc2c(C)c2c1sc1ccccc12 | 714 s
Cc1cc([N+](=O)[O-])nn1CC(=O)NCc1cccs1 | 572 s
CCC(C)NC(=O)N1CCN(c2nc3ccccc3n(Cc3ccccc3)c2=O)CC1 (stereo not given) | 981 s

Could I get RP-LC retention time for every one of these entries?
1. CCC(=O)N1CCc2cc(N3CC(C(=O)NCc4ccccc4F)CC3=O)ccc21 (stereo not given)
2. CCOC(=O)c1c(C)oc2nc(C)nc(NCCCN3CCN(c4ccc(F)cc4)CC3)c12

[reply]
1: 722 s; 2: 738 s
